molecular target: estrogen-related receptor alpha (ERRα) (Homo sapiens); assay: ERR reporter (luciferase) antagonist qHTS assay, ERR-HEK293; settings: follow-up screen; relative to XCT790 = −100%
test readout: ERR-HEK293 Follow-Up Efficacy (%)
All answers are understood in %, so give the number only.

## Input Look up ERR-HEK293 Follow-Up Efficacy for this molecule: Cc1nn(C)c(Oc2ccccc2)c1C=NOCc1ccc(C(=O)OC(C)(C)C)cc1 [Fenpyroximate]
## Output −89.6

## Input // repeat for C[C@@H]1CC[C@H]2[C@@H](C)C(=O)O[C@@H]3O[C@@]4(C)CC[C@@H]1[C@]32OO4 [Artemisinin] and report
## Output −83.7

## Input Okay, and C=C(C)[C@H]1Cc2c(ccc3c2O[C@@H]2COc4cc(OC)c(OC)cc4[C@@H]2C3=O)O1 [Rotenone] ?
## Output −95.8

## Input What about COc1cc([C@@H]2c3cc4c(cc3[C@@H](O[C@@H]3O[C@@H]5CO[C@@H](C)O[C@H]5[C@H](O)[C@H]3O)[C@H]3COC(=O)[C@H]23)OCO4)cc(OC)c1O [Etoposide] ?
## Output −88.9

----------
molecular target: estrogen-related receptor alpha (ERRα) (Homo sapiens); assay: ERR reporter (luciferase) antagonist qHTS assay, ERR-HEK293; settings: ERR-HEK293 Primary EC50, primary qHTS, 18 h, 15 concentrations; mean ± SD, triplicate
Structures can show the parent of a compound that is named as a salt.
test readout: pEC50
Interpret pEC50 as the negative base-10 log of the concentration measured in mol/L.

## Input What measured pEC50 goes with COC(=O)N(OC)c1ccccc1COc1ccn(-c2ccc(Cl)cc2)n1 ?
## Output 6.62

## Input Also C[C@@H]1CC[C@H]2[C@@H](C)C(=O)O[C@@H]3O[C@@]4(C)CC[C@@H]1[C@]32OO4 ?
## Output 6.00

## Input // repeat for CC[C@@]1(O)C(=O)OCc2c1cc1n(c2=O)Cc2cc3c(CN(C)C)c(O)ccc3nc2-1 [Topotecan hydrochloride] and report
## Output 5.91

## Input Let us now turn to CO/N=C(/C(=O)OC)c1ccccc1COc1ccccc1C
## Output 5.25

## Input Do the same for Cc1nn(C)c(Oc2ccccc2)c1C=NOCc1ccc(C(=O)OC(C)(C)C)cc1 [Fenpyroximate] please
## Output 8.34

## Input Try CO/C=C(/C(=O)OC)c1ccccc1COc1cccc(C(F)(F)F)n1 next.
## Output 6.09

## Input Now the compound Cc1nc(N)nc(N)c1-c1ccc(Cl)c(Cl)c1
## Output 5.97

----------
biological target: ERRα with PGC-1α (PGC/ERR pathway) (Homo sapiens); assay: PGC/ERR reporter (luciferase) qHTS assay, PGC/ERR-HEK293; conditions: PGC/ERR-HEK293 Follow-Up EC50, follow-up screen; mean ± SD, triplicate
Sequence (P11474 whole entry): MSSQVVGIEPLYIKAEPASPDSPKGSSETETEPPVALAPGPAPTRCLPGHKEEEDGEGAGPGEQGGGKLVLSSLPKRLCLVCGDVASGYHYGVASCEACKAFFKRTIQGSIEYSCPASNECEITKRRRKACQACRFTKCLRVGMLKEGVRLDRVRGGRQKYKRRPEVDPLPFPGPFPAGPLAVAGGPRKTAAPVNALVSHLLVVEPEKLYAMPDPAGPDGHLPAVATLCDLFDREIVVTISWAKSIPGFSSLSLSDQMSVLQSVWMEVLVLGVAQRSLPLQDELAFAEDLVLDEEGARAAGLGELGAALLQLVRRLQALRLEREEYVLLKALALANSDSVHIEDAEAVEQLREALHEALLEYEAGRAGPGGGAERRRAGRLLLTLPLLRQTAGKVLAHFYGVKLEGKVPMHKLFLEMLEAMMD
Structures can show the parent of a compound that is named as a salt.
Please respond with reported EC50 for every item in the list.
Numbers only; they are read as µM.

## Input Using the record for CC[C@@]1(O)C(=O)OCc2c1cc1n(c2=O)Cc2cc3c(CN(C)C)c(O)ccc3nc2-1 [Topotecan hydrochloride] , report its EC50.
## Output 5.26

## Input Moving on to the next molecule: COc1cc([C@@H]2c3cc4c(cc3[C@@H](O[C@@H]3O[C@@H]5CO[C@@H](C)O[C@H]5[C@H](O)[C@H]3O)[C@H]3COC(=O)[C@H]23)OCO4)cc(OC)c1O [Etoposide]
## Output 10.7

## Input Please do the same for Cc1nn(C)c(Oc2ccccc2)c1C=NOCc1ccc(C(=O)OC(C)(C)C)cc1 [Fenpyroximate] as well.
## Output 0.0186

## Input Would you kindly repeat that for COC(=O)N(OC)c1ccccc1COc1ccn(-c2ccc(Cl)cc2)n1 ?
## Output 0.539

## Input Same question, CO/C=C(/C(=O)OC)c1ccccc1COc1cccc(C(F)(F)F)n1 this time
## Output 4.19

## Input Now the molecule CC(C)C[C@H](NC(=O)[C@H](Cc1ccccc1)NC(=O)c1cnccn1)B(O)O
## Output 0.00962

## Input CO/N=C(/C(=O)OC)c1ccccc1COc1ccccc1C ?
## Output 17.7

## Input Next molecule: CC(C)(C)c1ccc(CSc2cnn(C(C)(C)C)c(=O)c2Cl)cc1
## Output 0.0434
